Recorded self-cleavage kobs at 160 uM GlcN6P for the following variants
B1: glmS ribozyme (parent)
chain: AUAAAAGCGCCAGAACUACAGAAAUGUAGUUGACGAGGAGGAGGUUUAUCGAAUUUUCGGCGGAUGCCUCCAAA

Variants of: B1
procedure.details: self-cleavage kobs at 160 uM GlcN6P; higher = faster cleavage; RNA array
condition.parameters: with glucosamine-6-phosphate
Fewer inactive variants are shown than the library holds.
metric.name: self-cleavage kobs at 160 uM GlcN6P

[[record]]
sequence_string = "AUAAAAGCGCCAGAACUACAGAAAUGUAGUUGACGAGGAGGACGUUUAUCGACUUCUCGGCGGAUGCCUCCAAA [G43C A53C U56C]"
result = "< 1e-05 s⁻¹"

[[record]]
sequence_string = "AUAAAUGCGCCAGAACUACAGAAAUGUAGUUGACGAGGAGGAGUUUUAUCGAAUUUUCGGUGGAUGCCUCCAAA [A6U G44U C61U]"
result = "< 1e-05 s⁻¹"

[[record]]
sequence_string = "AUAAAAGCGCCAGAACUACAGAAAUGUAGUUGACCAGGAGGAGGUUUAUCGAAUUUUCGGCGGAUGCCGCCAAA [G35C U69G]"
result = "< 1e-05 s⁻¹"

[[record]]
sequence_string = "AUAAAAGCGCCAGAACUACAGAAAUGUAGUUGACGAGGAGGAGGUUUAUCGAAUUUGCGCCGGAUGCCUCCAAA [U57G G60C]"
result = "< 1e-05 s⁻¹"

[[record]]
sequence_string = "AUAAAAGCGCCAGAACUACAGAAAUGUAGUUGACGAGGAUGAGGUUUGUCGAAUUUUCGGCGUAUGCCUCCAAA [G40U A48G G63U]"
result = "< 1e-05 s⁻¹"

[[record]]
sequence_string = "AUAAAAGUGCCAGAACUACAGAAAUGUAGUUGAGGAGGAGGAGGUUUAUCGAAUUUUCGGCGGAUGCCUCCAAA [C8U C34G]"
result = "< 1e-05 s⁻¹"

[[record]]
sequence_string = "AUAAAAGCGUCAGAACUACAGAAAUGUAGUUGACGAGGUGGAGGUUUAUCGAAUUUUCGGCGGUUGCCUGCAAA [C10U A39U A64U C70G]"
result = "< 1e-05 s⁻¹"

[[record]]
sequence_string = "AUAAAAGCGCCAGAACUACAGAAAUGUAGUUGACGAGGAGGAGGUUUUUCGAAUUUUCGGCGCAUGCCUCCAAA [A48U G63C]"
result = "< 1e-05 s⁻¹"

[[record]]
sequence_string = "AUAAAAGCGCCAGAACUACAGAAAUGUAGUUGACUAGGAGGCGGUUUAUCGAAUUUUCGGCGGAUGCCUCCAAA [G35U A42C]"
result = "< 1e-05 s⁻¹"

[[record]]
sequence_string = "AUAAAAGCGCCAGAACUACAGAAAUGUAGUUGACGAGGAGGAGGUUUAUCGAAGUAUCGGCGCAUGCCUCCAAA [U54G U56A G63C]"
result = "< 1e-05 s⁻¹"

[[record]]
sequence_string = "AUAAAAGCGCCAGAACUACAGAAAUGUAGUUGACGAGGAGUAGGUUUAUCGAAUUUUCAGCGGAUGCCUCCAAA [G41U G59A]"
result = "< 1e-05 s⁻¹"

[[record]]
sequence_string = "AUAAAAGGGCCAGAACUACAGAAAUGUAGUUGACGAGGAUGAGGUUUAUCGAAUUUUCGGAGGAUGCCUCUAAA [C8G G40U C61A C71U]"
result = "< 1e-05 s⁻¹"

[[record]]
sequence_string = "AUAAAAGCGCCCGAACUACAGAAAUGUAGUUGACGAGGAGGAGGUUUAUAGAGUUUUCGGCGUAUGCCUCCAAA [A12C C50A A53G G63U]"
result = "< 1e-05 s⁻¹"

[[record]]
sequence_string = "AUAAAAGCGCCCGAACUACAGAAAUGUAGUUGACGAGGAGGAGGUUUAUCGAAUUUUCGGCGGAUGCCGCCAAA [A12C U69G]"
result = "5.5e-05 s⁻¹"

[[record]]
sequence_string = "AUAAAAGCGCCAGAACUACAGAAAUGUAGUUGACGAGGAGGGGGUUUAUCGAAUUUUCGGCGGAUGCCCCCAAA [A42G U69C]"
result = "0.00336 s⁻¹"

[[record]]
sequence_string = "AUAAAAGCGCCAGAACUACAGAAAUGUAGUUGCCGAGGAGGAGGUUUAUCGAAUUUUCGGCGGCUGCCUCCAAA [A33C A64C]"
result = "< 1e-05 s⁻¹"

[[record]]
sequence_string = "AUAAAAGCUCCAGAACUACAGAAAUGUAGUUGACGAGGAGGAGGGUUAUGGAAUUUUCGGCGGAUGCCUCCAAA [G9U U45G C50G]"
result = "< 1e-05 s⁻¹"

[[record]]
sequence_string = "AUAAAAGCUCCAGAACUACAGAAAUGUAGUUGACGAGGAGGAGGUUUAUCGAAUUUUCGGCGGAUGGCUCCAAA [G9U C67G]"
result = "< 1e-05 s⁻¹"

[[record]]
sequence_string = "AUAAAAGCGCCAGAACUACAGAAAUGUAGUUGACGAGGAGGAGGUUUAUCGAAUUGUCGGCGGAUGCCUACAAA [U56G C70A]"
result = "3.41e-05 s⁻¹"

[[record]]
sequence_string = "AUAAAAGCGCAAUAACUACAGAAAUGUAGUUGACGAGGAGGAGGUUGAUCGCCUUUUCGGCGGAUGCCUCCAAA [C11A G13U U47G A52C A53C]"
result = "< 1e-05 s⁻¹"

[[record]]
sequence_string = "AUAAAAGCGCCAGAACUACAGAAAUGUAGUUGCCGAGGAGGAGGUUUAUCGAAUUCUCGGCGGAUGCCUCCAAA [A33C U56C]"
result = "< 1e-05 s⁻¹"

[[record]]
sequence_string = "AUAAAAGCGCCAGAACUACAGAAAUGUAGUUGACGAGGAGGAGGUUUAUCGAAUUUUCGGCGGAUACCUCAAAA [G66A C71A]"
result = "0.00048 s⁻¹"

[[record]]
sequence_string = "AUAAAAGCGCCAGAACUACAGAAAUGUAGUUGACCAGGAAGAGGUUUAUCGAAUUUUCGGCGGAUGCCUCCAAA [G35C G40A]"
result = "< 1e-05 s⁻¹"

[[record]]
sequence_string = "AUAAAAGGGCCAGAACUACAGAAAUGUAGUUGACGAGGAGGAGGUUUAUCGAAUUAUCGGCUGAUGCCUCCAAA [C8G U56A G62U]"
result = "< 1e-05 s⁻¹"

[[record]]
sequence_string = "AUAAAAGCGCCAGAACUACAGAAAUGUAGUUGACGAGGAGGAGGUUUUUCGAAUUUUCCGCGGAUGCCUCCAAA [A48U G59C]"
result = "< 1e-05 s⁻¹"

[[record]]
sequence_string = "AUAAAAGCGCCAGAACUACAGAAAUGUAGUUGACGGGGAGGAGGUUUUUCGAAUUUUCGGCGGAUGCCUCCAAA [A36G A48U]"
result = "< 1e-05 s⁻¹"

[[record]]
sequence_string = "AUAAAAGCCCCAGAACUACAGAAAUGUAGUUGACGAGGAGGAGGUGUAUCGAAUUUUCGGCGGAUGCCUCCAAA [G9C U46G]"
result = "< 1e-05 s⁻¹"

[[record]]
sequence_string = "AUAAAUGCGCCGGAACUACAGAAAUGUAGUUGACGAGGAGGAGGUUUAUCGAAUUUUCGGCGGAUUCCUCCAAA [A6U A12G G66U]"
result = "8.08e-05 s⁻¹"

[[record]]
sequence_string = "AUAAAUGCGCCAGAACUACAGAAAUGUAGAUGACGCGGAGGAGGUUUAUCGAAUUUUCGGCGGAUGCCUCCAAA [A6U U30A A36C]"
result = "< 1e-05 s⁻¹"

[[record]]
sequence_string = "AUAAAACCGCCACAACUACAGAAAUGUAGUUGACGAGGAGGAGGUUUGUCGAAUUUUCGGCGGAUGCCUACAAA [G7C G13C A48G C70A]"
result = "< 1e-05 s⁻¹"

[[record]]
sequence_string = "AUAAAAGCGCCAGAACUACAGAAAUGUAGUAGACGAGGAGGAGGUUUAUCGAAUUUUCGGUGGAUGCCUCCAAA [U31A C61U]"
result = "< 1e-05 s⁻¹"

[[record]]
sequence_string = "AUAAAAGCGCCAGAACUACAGAAAUGUAGUUGACGAGGAGGAGGUUUAUCGAUGAAUCGGCGGAUGCCUCCAAA [A53U U54G U55A U56A]"
result = "0.000355 s⁻¹"

